I'd appreciate it if you could supply Kd values for the items below.
# target: T1, Eukaryotic initiation factor 4E (eIF4E), full-length human (human, UniProt P06730 1-217)
# T1 construct: eIF4E, human, full length
# T1 sequence (P06730 whole entry): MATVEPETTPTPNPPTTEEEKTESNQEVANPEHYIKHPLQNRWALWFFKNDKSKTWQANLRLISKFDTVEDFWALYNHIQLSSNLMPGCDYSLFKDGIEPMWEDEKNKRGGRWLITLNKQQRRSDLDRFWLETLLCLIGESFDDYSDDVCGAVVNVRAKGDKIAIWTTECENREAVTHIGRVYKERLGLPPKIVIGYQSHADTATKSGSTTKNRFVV
# protocol: SPR; eIF4E amine coupled to a CM5 chip (about 1000 RU, m7GTP present at immobilisation), peptides injected; 10 mM Hepes pH 7.6, 0.15 M NaCl, 1 mM DTT, 0.1% Tween20, 3% DMSO; Biacore T100; Kd from the association and dissociation phases (Kkin), 1:1 model, three titrations
# particulars: both partners purified
Remember to put the unit after the number in your answer.

[in] # input binder: KKRYDREFLLAF (eIF4G1 peptide with G11A; source: synthetic peptide (Mimotopes), HPLC purified to >90%) [eIF4G1-G11A peptide] ; wanted: its Kd
[out] 282 nM

[in] Likewise for KKRYDREFLLGF (also called eIF4G1-WT; eIF4G1 peptide; source: synthetic peptide (Mimotopes), HPLC purified to >90%) [eIF4G1 wild type peptide] ?
[out] 524 nM

[in] Likewise for KKRYSRDQLVAL (phage display selected 12-mer … with its N-terminal SLH changed to KKR of the eIF4G1 peptide; source: synthetic peptide (Mimotopes), HPLC purified to >90%) [PHAGESOL peptide] ?
[out] 77.1 nM

[in] Likewise for KKRYDREFLLGL (eIF4G1 peptide with F12L; also called F12L mutant peptide; source: synthetic peptide (Mimotopes), HPLC purified to >90%) [eIF4G1-F12L peptide] ?
[out] 718 nM
